The reader will find reported inhibition values listed item by item below.
target: Proto-oncogene tyrosine-protein kinase Src (Homo sapiens); details: at 1 µM;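 note: each value is an averaged percent inhibition of SRC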
PROPERTY_MEASURED: inhibition (%)

In [3]: df
Out[3]:
                    structure_smiles_string                                    target  readout_number
0  COc1cc(Nc2nccc(-c3cnn4ncccc34)n2)cc(OC)c1  Proto-oncogene tyrosine-protein kinase Src (Homo sapiens)            63.9
1  Cc1cc(Cl)cc2c1NC(=O)C2=NNc1ccc(S(N)(=O)=O)cc1  Proto-oncogene tyrosine-protein kinase Src (Homo sapiens)            5.85
2  CN(C)C(=O)O[C@H]1CN[C@H](C#Cc2cc3ncnc(Nc4ccc(OCc5cccc(F)c5)c(Cl)c4)c3s2)C1  Proto-oncogene tyrosine-protein kinase Src (Homo sapiens)            6.56
3  Cc1ccc2c(-c3ccnc(Nc4cccc(C(F)(F)F)c4)n3)c(-c3ccccc3)nn2n1  Proto-oncogene tyrosine-protein kinase Src (Homo sapiens)            72.9
4  NS(=O)(=O)c1ccc(-c2cc3ccncc3cc2OCc2ccccc2)cc1  Proto-oncogene tyrosine-protein kinase Src (Homo sapiens)            6.83
5  Nc1nccc(-c2c(-c3ccc(F)cc3)nn3cc(C(F)(F)F)ccc23)n1  Proto-oncogene tyrosine-protein kinase Src (Homo sapiens)            1.39
6  CN(C)c1cc2c(Nc3ccc4c(cnn4Cc4ccccc4)c3)ncnc2cn1  Proto-oncogene tyrosine-protein kinase Src (Homo sapiens)            13.1
7  CCS(=O)(=O)c1ccc(OC)c(Nc2ncc(-c3cccc(OC)c3)o2)c1  Proto-oncogene tyrosine-protein kinase Src (Homo sapiens)            79.4
8  CN(C)C(=O)O[C@@H]1CN[C@@H](C#Cc2cc3ncnc(Nc4ccc(OCc5cccc(F)c5)c(Cl)c4)c3s2)C1  Proto-oncogene tyrosine-protein kinase Src (Homo sapiens)            3.62
9         N#Cc1c(NC(=O)c2ccccc2F)sc2c1CCCC2  Proto-oncogene tyrosine-protein kinase Src (Homo sapiens)           -4.48

====

target: Ribosomal protein S6 kinase alpha-3 (Homo sapiens) (UniProt P51812); details: at 0.1 µM;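 note: reported value is a mean inhibition figure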
Sequence (P51812 whole entry): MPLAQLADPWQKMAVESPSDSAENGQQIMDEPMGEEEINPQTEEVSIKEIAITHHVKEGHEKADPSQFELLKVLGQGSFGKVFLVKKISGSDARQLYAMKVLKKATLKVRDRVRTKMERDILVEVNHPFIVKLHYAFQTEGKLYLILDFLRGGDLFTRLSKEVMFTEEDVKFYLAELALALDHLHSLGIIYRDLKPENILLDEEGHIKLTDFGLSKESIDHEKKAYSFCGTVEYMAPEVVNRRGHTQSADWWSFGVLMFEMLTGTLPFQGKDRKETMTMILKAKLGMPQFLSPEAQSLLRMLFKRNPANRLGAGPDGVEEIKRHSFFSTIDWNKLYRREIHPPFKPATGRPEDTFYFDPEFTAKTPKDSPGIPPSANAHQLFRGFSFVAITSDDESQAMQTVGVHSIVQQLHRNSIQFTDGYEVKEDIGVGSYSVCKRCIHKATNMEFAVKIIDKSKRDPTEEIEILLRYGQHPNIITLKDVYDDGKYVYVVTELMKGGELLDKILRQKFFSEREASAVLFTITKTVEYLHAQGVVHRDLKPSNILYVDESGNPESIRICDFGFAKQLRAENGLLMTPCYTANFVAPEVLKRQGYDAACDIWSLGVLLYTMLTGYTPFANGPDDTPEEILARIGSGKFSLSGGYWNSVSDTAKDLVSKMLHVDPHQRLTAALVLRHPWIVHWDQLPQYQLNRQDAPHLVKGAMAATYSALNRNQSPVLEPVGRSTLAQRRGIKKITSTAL
Attribute: inhibition
PROPERTY_MEASURED: inhibition (%)

>>> df
                     structure_smiles_string  property_measured  unit_of_measurement  readout_number
 0  C[C@@H](Oc1cc(-n2cnc3ccc(OCC4CCN(C)CC4)cc32)sc1C(N)=O)c1ccccc1C(F)(F)F         inhibition                    %            11.8
 1  NS(=O)(=O)c1ccc(N/N=C2\C(=O)Nc3ccc(Cl)cc32)cc1         inhibition                    %            1.84
 2  Oc1cccc(-c2nc(-c3ccccc3)[nH]c2-c2ccncc2)c1         inhibition                    %            1.36
 3             CCOc1nccc2c1nc(-c1nonc1N)n2CC         inhibition                    %            3.74
 4  ON=C1CCc2cc(-c3nc(C4CCNCC4)[nH]c3-c3ccncc3)ccc21         inhibition                    %              -1
 5  NC(=O)c1sc(-n2cnc3ccccc32)cc1OCc1ccccc1Br         inhibition                    %            1.56
 6  CS(=O)(=O)CCNCc1nc(-c2ccc3ncnc(Nc4ccc(OCc5cccc(C(F)(F)F)c5)cc4)c3c2)cs1         inhibition                    %            1.21
 7  CN(C)C(=O)O[C@@H]1CN[C@@H](C#Cc2cc3ncnc(Nc4ccc(OCc5cccc(F)c5)c(Cl)c4)c3s2)C1         inhibition                    %             0.2
 8  CN1CCN(C(=O)c2ccc(NC(=O)Nc3ccc(N(C)c4ccnc(Nc5ccc(CS(C)(=O)=O)cc5)n4)cc3)cc2)CC1         inhibition                    %            0.47
 9  COc1cccc(-n2ncc3c(N/N=C/c4ccc(S(C)(=O)=O)cc4)ncnc32)c1         inhibition                    %            1.53
10  O=C(Nc1ccc(Oc2ccc3[nH]c(NC(=O)c4ccco4)nc3c2)cc1)Nc1cc(C(F)(F)F)ccc1F         inhibition                    %             1.5

====

In this section we review reported inhibition values for a set of molecules.
target: Misshapen-like kinase 1 (Homo sapiens); conditions: at 0.1 µM;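 note: mean inhibition value reported, from GSK PKIS kinase profiling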
PROPERTY_MEASURED: inhibition (%)

In [3]: df
Out[3]:
                    structure_smiles_string  property_measured  readout_number
0  NS(=O)(=O)c1cccc(-c2cc3ccncc3cc2OCc2ccccc2)c1         inhibition             7.3
1  CN(C)C(=O)O[C@H]1CN[C@H](C#Cc2cc3ncnc(Nc4ccc(OCc5cccc(F)c5)c(Cl)c4)c3s2)C1         inhibition            3.51
2  Cc1ccc2c(-c3ccnc(Nc4cccc(C(F)(F)F)c4)n3)c(-c3ccccc3)nn2n1         inhibition            8.79
3  Cc1ccc(NC(=O)CC2CC2)cc1-c1ccc(C(=O)NCC2CC2)cc1         inhibition            2.74
4  OCc1ccc(-c2nc(-c3ccccn3)c(-c3ccc4c(c3)OCO4)[nH]2)cc1         inhibition            5.77
5  CC(C)c1ccc(Nc2nccc(-c3cnn4ncccc34)n2)cc1         inhibition            3.97
6  C[C@@H](Oc1cc(-n2cnc3ccc(OC[C@@H](O)CO)cc32)sc1C(N)=O)c1ccccc1Cl         inhibition           -1.25

====

target: Serine/threonine-protein kinase PAK 6 (Homo sapiens); conditions: at 1 µM;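 note: values are mean percent inhibition of PAK6 kinase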
PROPERTY_MEASURED: inhibition (%)

                    structure_smiles_string  readout_number
0  Nc1nccc(-c2c(-c3ccc(F)cc3)nn3cc(C(F)(F)F)ccc23)n1            5.02
1  NS(=O)(=O)c1ccc(NC=C2C(=O)Nc3ccc4ncsc4c32)cc1           -1.77
2  O=C1Nc2ccccc2/C1=C/Nc1ccc2[nH]c(=O)[nH]c2c1           -6.29

====

Biological target: Serine/threonine-protein kinase DCLK2 (Homo sapiens);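 note: reported value is the mean percent inhibition of DCAMKL2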
Sequence (whole entry): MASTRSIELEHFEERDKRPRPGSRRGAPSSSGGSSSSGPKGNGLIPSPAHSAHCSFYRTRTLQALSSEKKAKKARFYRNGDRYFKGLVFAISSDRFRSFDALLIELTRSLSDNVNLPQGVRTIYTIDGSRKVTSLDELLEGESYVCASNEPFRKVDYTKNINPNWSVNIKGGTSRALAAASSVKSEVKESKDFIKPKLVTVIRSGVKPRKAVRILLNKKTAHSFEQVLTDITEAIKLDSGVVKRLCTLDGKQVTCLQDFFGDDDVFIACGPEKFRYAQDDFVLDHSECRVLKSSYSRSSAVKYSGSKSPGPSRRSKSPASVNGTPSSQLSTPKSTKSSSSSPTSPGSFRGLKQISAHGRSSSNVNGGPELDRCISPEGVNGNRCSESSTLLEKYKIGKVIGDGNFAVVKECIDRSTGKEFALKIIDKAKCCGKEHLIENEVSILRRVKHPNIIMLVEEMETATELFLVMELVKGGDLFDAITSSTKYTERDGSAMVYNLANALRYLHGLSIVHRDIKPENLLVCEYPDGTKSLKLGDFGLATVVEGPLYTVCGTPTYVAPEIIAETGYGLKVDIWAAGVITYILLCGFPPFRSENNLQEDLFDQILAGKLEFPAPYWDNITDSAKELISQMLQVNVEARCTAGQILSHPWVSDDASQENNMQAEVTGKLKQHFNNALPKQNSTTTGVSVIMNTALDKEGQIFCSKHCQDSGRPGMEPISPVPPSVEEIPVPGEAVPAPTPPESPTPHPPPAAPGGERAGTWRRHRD
Settings: at 0.1 µM
PROPERTY_MEASURED: inhibition (%)

In [3]: df
Out[3]:
                    structure_smiles_string  readout_number
0  COc1cc2ncnc(Nc3ccc4c(cnn4Cc4ccccc4)c3)c2cc1OC           -1.15
1  COc1cc(Nc2nccc(-c3cnn4ncccc34)n2)cc(OC)c1            4.84
2  C[C@@H](Oc1cc(-n2cnc3ccc(OCC4CCN(C)CC4)cc32)sc1C(N)=O)c1ccccc1C(F)(F)F           -1.44
3  NS(=O)(=O)c1ccc(Nc2cc(-c3cccc(O)c3)n[nH]2)cc1            0.84
4  CC(C)c1ccc(Nc2nccc(-c3cnn4ncccc34)n2)cc1             0.5
5  NC(=O)c1sc(-n2cnc3ccccc32)cc1OCc1ccccc1Br              -1
